B1: ETS1 (parent)
chain: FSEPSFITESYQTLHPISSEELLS

variants of: B1; assay: protein stability index of a GFP-peptide fusion (GPS, HEK-293T) (PSI 1-6); higher = more stable; settings: c terminus: a fixed tail appended;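 also: lentivirally expressed fusions sorted by FACS into six bins by GFP to DsRed ratio, PSI derived from sequencing read proportions per bin multiplied by bin number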
# protein stability index per record follows
Keep it simple and answer with nothing but the number.

{"columns": ["RESIDUE SEQUENCE", "protein stability index"],
 "data": [
  ["FSEPSFITESYQTLHPIMSEELLS", 2],
  ["FSEPSFITESYQTLHPISSEEMLS", 2]
]}

Task item: Looking for the measured protein stability index of `FSEPSFITESYQTLHPISSELLLS` , can you help?
Reply: 1.93

Task item: Cool, now `FSEPSWITESYQTLHPISSEELLS`
Reply: 2.27

Task item: Similarly, `FSEPSFITESCQTLHPISSEELLS` ?
Reply: 1.67

Task item: Also `FSEISFITESYQTLHPISSEELLS` , if possible.
Reply: 1.54

Task item: What would you report for `FSEPSFITESYQTLHPISSEFLLS` ?
Reply: 1.99

Task item: Again, but for `FSEPSFILESYQTLHPISSEELLS`
Reply: 1.92

Task item: Again, but for `FSEPRFITESYQTLHPISSEELLS`
Reply: 2.63

Task item: Please give the result for `FSEPSFITESYQTLHPISSEELCS` too.
Reply: 1.97
